These data points were gathered from patent EP0422134B1.

In this section, each of the compounds is paired with its reported IC50.
target-under-test: 5-HT1
procedure-details: Radioligand binding, tritiated 5-HT, rat frontal cortex homogenate (total 5-HT1)
measurement-parameters: displacement of tritiated 5-HT
Counter-ions that a name gives are not always drawn.
Give a bare numeral; the unit nM is implied.

Worked set:
Problem: Requested read-out: IC50. Entry: COc1cccc2c1C1CN(CCCCN3C(=O)C4C5C=CC(C6C=CC65)C4C3=O)CC1C2 (stereo not shown) [Example 54, hydrochloride]
Solution: 283

Problem: Requested read-out: IC50. Entry: O=C1CC2(CCCC2)CC(=O)N1CCCCN1CC2Cc3cccc(O)c3C2C1 (stereo not shown) [Example 20, hydrobromide]
Solution: 1840

Problem: Requested read-out: IC50. Entry: COc1cccc2c1C1CCN(CCCN3C(=O)CC4(CCCC4)CC3=O)CC1C2 (stereo not shown) [Example 43, hydrochloride]
Solution: 3120

Attention now shifts to the item below.
Problem: Requested read-out: IC50. Entry: COc1cccc2c1[C@H]1CCN(CCCN3C(=O)c4ccccc4S3(=O)=O)C[C@@H]1C2 (relative stereo) [Example 56, hydrochloride]
Solution: 22

* * *

target-under-test: 5-HT1
procedure-details: Radioligand binding, tritiated 5-HT, rat frontal cortex homogenate (total 5-HT1)
measurement-parameters: displacement of tritiated 5-HT
Counter-ions that a name gives are not always drawn.
property-label: IC50 (nM)
Give a bare numeral; the unit nM is implied.

Problem: Requested read-out: IC50. Entry: COc1cccc2c1C1CN(CCCN3C(=O)CC4(CCCC4)CC3=O)CC1C2 (stereo not shown) [Example 26, hydrochloride]
Solution: 3300

Problem: Requested read-out: IC50. Entry: COc1cccc2c1C1CN(CCCCN3C(=O)CC(C)(C)CC3=O)CC1C2 (stereo not shown) [Example 23, hydrochloride]
Solution: 1730

Problem: Requested read-out: IC50. Entry: COc1cccc2c1C1CN(CCCCN3C(=O)c4ccccc4S3(=O)=O)CC1C2 (stereo not shown) [Example 21, hydrochloride]
Solution: 438

New cases:
Problem: Requested read-out: IC50. Entry: COc1cccc2c1C1CCN(CCNC(=O)c3ccc(F)cc3)CC1C2 (stereo not shown) [Example 58, hydrochloride]
Solution: 43

* * *

target-under-test: 5-HT1
procedure-details: Radioligand binding, tritiated 5-HT, rat frontal cortex homogenate (total 5-HT1)
measurement-parameters: displacement of tritiated 5-HT
Where a name gives a salt, the structure may show the parent alone.
In plain terms, low IC50, meaning strictly below 500 nM, gives Met, and everything else gives Not met.

Reference set (5 entries):
Problem: Lab note: IC50 threshold 500 nM. Does this compound come in strictly under it? COc1cccc2c1C1CN(C/C=C\CN3C(=O)CC4(CCCC4)CC3=O)CC1C2 (stereo not shown) [Example 29, hydrochloride]
Solution: Not met

Problem: Lab note: IC50 threshold 500 nM. Does this compound come in strictly under it? COc1cccc2c1C1CN(C[C@@H]3COc4ccccc4O3)CC1C2 (stereo partly shown) [Example 32, hydrochloride]
Solution: Not met

Problem: Lab note: IC50 threshold 500 nM. Does this compound come in strictly under it? COc1cccc2c1[C@H]1CCN(CCCN3C(=O)CC4(CCCC4)CC3=O)C[C@@H]1C2 (relative stereo) [Example 50, hydrochloride]
Solution: Met

Problem: Lab note: IC50 threshold 500 nM. Does this compound come in strictly under it? COc1cccc2c1C1CN(C[C@H]3COc4ccccc4O3)CC1C2 (stereo partly shown) [Example 31, hydrochloride]
Solution: Met

Problem: Lab note: IC50 threshold 500 nM. Does this compound come in strictly under it? COc1cccc2c1[C@H]1CCN(CCCCN3C(=O)CC4(CCCC4)CC3=O)C[C@@H]1C2 (relative stereo) [Example 51, hydrochloride]
Solution: Met

Next item in the queue.
Problem: Lab note: IC50 threshold 500 nM. Does this compound come in strictly under it? O=C1c2ccccc2S(=O)(=O)N1CCCCN1CC2Cc3cccc(O)c3C2C1 (stereo not shown) [Example 22, hydrochloride]
Solution: Not met
